Source listed as the supplement of paper PMC4466140.

# TARGET ENTITY: SpCyk3
# PROCEDURE TEXT: SPOT peptide array binding signal intensity (averaged, normalized) (arbitrary units (background-subtracted, floor 0; scale differs between SH3 domains)); higher = stronger binding of the SH3 domain to the peptide
Parameter SPOT peptide array binding signal intensity: see the listing below.
No unit in the answer, only the number.

Would you please look over these solved cases?
{"BINDER": "RRRRRPHRIERPLSN", "MEASURED VALUE": 7}
{"BINDER": "RMVRRRPLRVQFSAR", "MEASURED VALUE": 7}
{"BINDER": "PELAPKREAPKPPAN", "MEASURED VALUE": 1}

Exam item: Please report the recorded SPOT peptide array binding signal intensity for FPPKRKPLLRPQRSD .
Marked response: 5

Exam item: Please report the recorded SPOT peptide array binding signal intensity for GKFIPSRPAPKPPSS .
Marked response: 5

Exam item: Please report the recorded SPOT peptide array binding signal intensity for ISNFVPPNLPMRRFK .
Marked response: 8

Exam item: Please report the recorded SPOT peptide array binding signal intensity for PAPPPPPRASRPTPN .
Marked response: 3
